Numbers sourced from patent US12497460B2.

- targetDesc: HMM-mfMSR1 (monkey MSR1 extracellular domain)
- Sequence (as listed by the source): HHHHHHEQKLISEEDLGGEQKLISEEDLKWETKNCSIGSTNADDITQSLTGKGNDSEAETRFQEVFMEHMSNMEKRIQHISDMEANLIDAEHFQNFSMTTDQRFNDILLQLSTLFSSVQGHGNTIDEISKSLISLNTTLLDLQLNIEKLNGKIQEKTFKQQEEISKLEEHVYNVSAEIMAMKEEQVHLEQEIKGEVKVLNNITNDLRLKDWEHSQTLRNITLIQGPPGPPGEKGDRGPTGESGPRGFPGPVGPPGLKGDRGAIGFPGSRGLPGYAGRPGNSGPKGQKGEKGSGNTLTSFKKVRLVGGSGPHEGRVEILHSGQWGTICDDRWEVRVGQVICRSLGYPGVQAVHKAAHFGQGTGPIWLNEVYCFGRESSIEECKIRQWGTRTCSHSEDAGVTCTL
- experimentalDetails: Biacore surface plasmon resonance binding kinetics of anti-MSR1 mAbs, antibody-capture format
- appliedConditions: 37° C.; analyte HMM-mfMSR1; calculated from kinetic rates; NB = no binding observed
measurementType: log10 Kd (log10 of the value in pM)
Quick note: numbers are log10 of Kd, with pM as the unit.

- H1H21227N-N297Q: "modified versions of 21227N (H1H21227N-N297Q and H1H21227N-N297D)"; anti-MSR1 antibody "with a N297Q single point mutation" (antibody, V domains shown) VH: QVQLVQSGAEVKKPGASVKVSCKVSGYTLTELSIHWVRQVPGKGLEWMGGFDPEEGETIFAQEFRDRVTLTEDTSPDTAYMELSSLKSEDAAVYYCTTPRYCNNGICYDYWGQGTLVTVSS VL: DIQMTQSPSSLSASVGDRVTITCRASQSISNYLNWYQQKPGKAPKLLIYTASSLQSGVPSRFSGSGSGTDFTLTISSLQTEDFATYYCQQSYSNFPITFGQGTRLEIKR: 0.60
- H1H21227N: "anti-MSR1 antibodies ... (21227N, 21231N, 21234N) were produced with the original human Fcγ portion"; "H1H" = human IgG1 Fc (antibody, V domains shown, human IgG1 Fc, "anti-MSR1 antibodies ; (21227N, 21231N, 21234N) were produced with the original human Fcγ portion"; "H1H" = human IgG1 Fc) VH: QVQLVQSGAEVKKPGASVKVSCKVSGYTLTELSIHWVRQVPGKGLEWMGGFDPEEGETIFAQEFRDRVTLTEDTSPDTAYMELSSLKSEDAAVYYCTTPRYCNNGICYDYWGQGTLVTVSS VL: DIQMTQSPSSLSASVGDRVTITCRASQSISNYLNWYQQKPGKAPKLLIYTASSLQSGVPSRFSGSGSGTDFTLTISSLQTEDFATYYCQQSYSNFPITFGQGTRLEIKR: 0.56
- H1H21231N: "anti-MSR1 antibodies ... (21227N, 21231N, 21234N) were produced with the original human Fcγ portion"; "H1H" = human IgG1 Fc (antibody, V domains shown, human IgG1 Fc, "anti-MSR1 antibodies ; (21227N, 21231N, 21234N) were produced with the original human Fcγ portion"; "H1H" = human IgG1 Fc) VH: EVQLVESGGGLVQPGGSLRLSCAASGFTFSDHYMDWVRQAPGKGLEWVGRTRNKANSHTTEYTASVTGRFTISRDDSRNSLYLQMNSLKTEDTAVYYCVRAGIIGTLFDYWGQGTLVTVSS VL: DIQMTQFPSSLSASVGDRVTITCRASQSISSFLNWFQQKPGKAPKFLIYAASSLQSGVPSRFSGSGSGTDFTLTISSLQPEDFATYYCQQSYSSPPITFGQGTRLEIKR: 2.04
- H1H21231N-N297Q: modified version of "21231N (H1H21231N-N297Q) anti-MSR1 antibodies" with "a N297Q single point mutation" (antibody, V domains shown) VH: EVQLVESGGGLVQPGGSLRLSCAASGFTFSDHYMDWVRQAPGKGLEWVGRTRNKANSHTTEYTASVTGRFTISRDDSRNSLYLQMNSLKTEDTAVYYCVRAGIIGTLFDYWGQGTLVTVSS VL: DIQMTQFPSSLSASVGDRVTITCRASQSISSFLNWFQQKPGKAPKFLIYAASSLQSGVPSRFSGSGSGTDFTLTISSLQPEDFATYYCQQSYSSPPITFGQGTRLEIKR: 2.27

# context switch: different molecule, same log10 Kd
Lookup: Field request: log10 Kd | item: H1H21227N-N297D: "The 21227N antibody was also produced as a third version with a N297D mutation" (antibody, V domains shown) VH: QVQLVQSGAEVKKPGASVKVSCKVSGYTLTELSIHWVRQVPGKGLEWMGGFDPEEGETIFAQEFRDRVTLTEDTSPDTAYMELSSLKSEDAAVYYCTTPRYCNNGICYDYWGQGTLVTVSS VL: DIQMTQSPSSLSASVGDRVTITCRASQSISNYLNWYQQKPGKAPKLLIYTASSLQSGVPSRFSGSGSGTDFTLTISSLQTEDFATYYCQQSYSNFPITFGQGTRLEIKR
Found: 0.96
